# target_or_system: HLA-B0702 (human)

| binder | Ki |
| --- | --- |
| TPAETSVRL (modifications not checked) […] | < 1000 nM |
